Ref: patent US20150182492A1

Tested on: gastric ulcer formation in rat stomachs
testDescription: Antiulcer activity, acidified ethanol-induced gastric ulcer
Type: in vivo, rat (male Wistar)
Design: key: total length of hemorrhagic lesions (mm) = ulcer index
conditionContext: dose 10 mg/kg by gastric gavage, 30 min before acidified ethanol; control 95.00
So I've got a bunch of compounds here, and I need their Ulcer Index, Mean values.
Answers are plain numbers.

# annotated cases, reported Ulcer Index, Mean shown
O=c1c(O)c(-c2ccc(O)c(O)c2)oc2cc(O)cc(O)c12
34.00
C=CCSCC=C [Allyl sulfide, Diallyl sulfide]
72.33

// input: 2 compounds below; output: Ulcer Index, Mean for each
1. C=CCSSCC=C [Allyl disulfide]
2. Cc1c(OCC(F)(F)F)ccnc1C[S+]([O-])c1nc2ccccc2[nH]1 (stereo not shown) [Lansoprazole, reference compound]

Result:
1. 0.00
2. 13.00
